TARGET OR SYSTEM: Voltage-gated potassium channel subunit beta-2 (Rattus norvegicus) (UniProt P62483)
Sequence (P62483 whole entry, looked up): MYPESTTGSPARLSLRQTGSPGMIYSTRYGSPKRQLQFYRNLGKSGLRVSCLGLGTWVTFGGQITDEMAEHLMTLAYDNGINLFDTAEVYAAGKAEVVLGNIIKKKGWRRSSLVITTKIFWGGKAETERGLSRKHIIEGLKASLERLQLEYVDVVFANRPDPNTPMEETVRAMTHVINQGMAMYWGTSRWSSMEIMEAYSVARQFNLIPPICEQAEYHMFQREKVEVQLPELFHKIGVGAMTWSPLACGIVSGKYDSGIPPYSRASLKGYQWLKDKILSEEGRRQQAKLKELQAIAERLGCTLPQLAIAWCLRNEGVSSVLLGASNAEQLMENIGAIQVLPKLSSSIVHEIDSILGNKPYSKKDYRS
PROTOCOL TEXT: KvBeta positive modulators, primary screen, biochemical, NADPH fluorescence (AID 623);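 further: fluorescence intensity change per second fitted from 20 to 320 s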
TEST CONTEXT: Recombinant KvBeta, NADPH fluorescence decrease slope, 10 min; at 10 µM; active compounds read low

{"COMPOUND": "c1cc2c(cc1C1=Nn3c(nnc3C3CCCCC3)SC1)OCO2", "NADPH fluorescence slope": "-8.1e-05"}
{"COMPOUND": "CCc1cc2c(=O)c(-c3cscn3)coc2cc1O", "NADPH fluorescence slope": "4e-05"}
{"COMPOUND": "Nc1nnnn1/N=C/c1ccccn1", "NADPH fluorescence slope": "-6e-05"}
{"COMPOUND": "COCCn1c(N)c(C(=O)NCC2CCCO2)c2nc3ccccc3nc21 (stereo unspecified)", "NADPH fluorescence slope": "7e-06"}
{"COMPOUND": "Cc1nnc2n(-c3ccccc3)c(=O)c3c4c(sc3n12)CC(C)CC4 (stereo unspecified)", "NADPH fluorescence slope": "1.3e-06"}
{"COMPOUND": "CSc1nc2sc3c(c2c(=O)[nH]1)CCC(C)C3 (stereo unspecified)", "NADPH fluorescence slope": "1.3e-05"}

----------
TARGET OR SYSTEM: Alpha-2C adrenergic receptor (Homo sapiens) (UniProt P18825)
Sequence (P18825 whole entry, looked up): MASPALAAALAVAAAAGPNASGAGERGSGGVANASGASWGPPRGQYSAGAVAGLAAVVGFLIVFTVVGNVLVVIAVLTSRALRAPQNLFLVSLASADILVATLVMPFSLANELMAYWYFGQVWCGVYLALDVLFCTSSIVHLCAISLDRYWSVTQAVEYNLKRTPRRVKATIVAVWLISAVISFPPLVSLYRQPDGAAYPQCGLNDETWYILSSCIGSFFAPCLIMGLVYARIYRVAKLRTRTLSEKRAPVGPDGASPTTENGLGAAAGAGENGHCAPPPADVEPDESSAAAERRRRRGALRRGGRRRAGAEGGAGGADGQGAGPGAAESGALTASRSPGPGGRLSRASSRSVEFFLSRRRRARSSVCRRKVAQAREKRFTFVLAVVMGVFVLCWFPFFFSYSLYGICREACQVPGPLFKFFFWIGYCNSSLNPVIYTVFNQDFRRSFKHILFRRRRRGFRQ
PROTOCOL TEXT: modulators of alpha2C/GIRK thallium flux, primary screen, cell-based, HEK293 alpha2C/GIRK1/2 (AID 624);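 further: slope of fluorescence ratio to pre-addition baseline per second over 15 to 24 s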
TEST CONTEXT: thallium flux BTC fluorescence, at 10 µM, actives lie on both sides
Activity calls are given as the source filed them.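 How the source made its calls: active means fluorescence slope after compound addition differing from the mean of all screened samples at 99.7% confidence, in either direction; inactive means the rest.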
In this section we review reported slope values for a set of compounds.

{"COMPOUND": "O=C(CN1C(=O)c2ccccc2S1(=O)=O)c1ccccc1", "slope": "0.005 (inactive)"}
{"COMPOUND": "Nc1nnc(CSCc2ccc(F)cc2)s1", "slope": "0.00497 (inactive)"}
{"COMPOUND": "C[N+](C)(C)CCOP(=O)([O-])OC[C@H](O)CO", "slope": "0.00513 (inactive)"}
{"COMPOUND": "CCCOc1cccc(C2/C(=C(/O)c3ccccc3)C(=O)C(=O)N2CCN(C)C)c1 (centres undefined)", "slope": "0.00489 (inactive)"}

----------
TARGET OR SYSTEM: Voltage-gated potassium channel subunit beta-2 (Rattus norvegicus)
PROTOCOL TEXT: KvBeta positive modulators, primary screen, biochemical, NADPH fluorescence (AID 623);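 further: fluorescence intensity change per second fitted from 20 to 320 s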
TEST CONTEXT: Recombinant KvBeta, NADPH fluorescence decrease slope, 10 min; at 10 µM; active compounds read low

{"COMPOUND": "CC(C)COc1nc2ccccc2nc1C(C#N)C(=O)NC1CCCCC1 (configuration not stated)", "NADPH fluorescence slope": -0.00013}
{"COMPOUND": "COc1ccc(-c2nnc3sc(COc4ccccc4)nn23)cc1", "NADPH fluorescence slope": -0.000151}
{"COMPOUND": "Cc1nc(Nc2ncc3c(n2)CCCC3=O)nc2ccccc12", "NADPH fluorescence slope": -0.000152}
{"COMPOUND": "COc1cccc(-c2nn3c(-c4ccccn4)nnc3s2)c1", "NADPH fluorescence slope": -0.000157}
{"COMPOUND": "Cc1ccc2[nH]c3c(N4CCOCC4)ncnc3c2c1", "NADPH fluorescence slope": "-2.2e-05"}
{"COMPOUND": "c1ccc(CSc2nnc(SCc3ccccn3)s2)nc1", "NADPH fluorescence slope": "-5.6e-05"}
{"COMPOUND": "Nc1ccc2ncccc2c1N", "NADPH fluorescence slope": "-2.1e-05"}
{"COMPOUND": "CCOC(=O)C1CCN(c2nc3ccccc3nc2C(C#N)C(=O)OCCOC)CC1 (configuration not stated)", "NADPH fluorescence slope": "2.1e-06"}
{"COMPOUND": "COC(=O)c1ccc(-c2sc3nc(N4CCOCC4)c4c(c3c2N)CCCC4)o1", "NADPH fluorescence slope": 0}
{"COMPOUND": "Nc1c(C(=O)NCC2CCCO2)c2nc3ccccc3nc2n1/N=C/c1ccncc1 (configuration not stated)", "NADPH fluorescence slope": "-3.7e-05"}
{"COMPOUND": "CCSc1nc(N)c2c3c(sc2n1)CCC3", "NADPH fluorescence slope": "-4.9e-05"}
{"COMPOUND": "COc1ccc(OC)c(C2/C(=C(\\O)c3ccc4c(c3)OCCO4)C(=O)C(=O)N2CCCN(C)C)c1 (configuration not stated)", "NADPH fluorescence slope": -0.000132}
